biological target: farnesyl protein transferase (Homo sapiens, UniProt P49354+P49356); experiment: FPT IC50, inhibition of farnesyl protein transferase, in vitro enzyme assay (procedure of WO 95/10516); settings: several values in a cell are repeat determinations, read-out: FPT C50
metric_name: IC50 (nM)
# number only, unit nM dropped from output

Task: Missing value: IC50, farnesyl protein transferase (Homo sapiens, UniProt P49354+P49356), entry COCC(=O)N1CCN(C2c3ncc(Br)cc3CCc3cc(Cl)cc(Br)c32)CC1C(=O)NCCCN1CCCC1=O (centres unmarked) [Compound 218] . Fill in?
Result: 48
